Molecular target: Procathepsin L (Homo sapiens, UniProt P07711)
Sequence (P07711 whole entry): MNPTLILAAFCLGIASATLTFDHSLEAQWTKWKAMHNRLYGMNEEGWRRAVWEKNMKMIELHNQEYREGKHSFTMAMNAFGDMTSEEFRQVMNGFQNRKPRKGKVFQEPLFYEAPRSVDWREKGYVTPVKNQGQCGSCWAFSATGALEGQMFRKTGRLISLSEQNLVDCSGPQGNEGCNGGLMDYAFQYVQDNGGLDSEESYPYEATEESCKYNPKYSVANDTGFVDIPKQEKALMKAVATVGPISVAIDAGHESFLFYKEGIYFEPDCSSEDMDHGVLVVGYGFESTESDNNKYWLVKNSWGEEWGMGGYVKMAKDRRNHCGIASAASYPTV
Test: Selectivity for HCV NS3 over human cathepsin L
MEASURED_ENDPOINT: selectivity ratio

# example entries with known answers
CCCC(NC(=O)[C@@H]1[C@H]2CCC[C@H]2CN1C(=O)[C@@H](NC(=O)[C@@H](NC(=O)c1cnccn1)C1CCCCC1)C(C)(C)C)C(=O)C(=O)NC1CC1 (some centres not stated) | 134
CC(C)(C)[C@H](NC(=O)[C@@H](NC(=O)c1cnccn1)C1CCCCC1)C(=O)N1CC2CCCC2[C@H]1C(=O)NC(CC(F)F)C(=O)C(=O)NC1CC1 (some centres not stated) | 760
CCC[C@H](NC(=O)[C@@H]1C2CCCC2CN1C(=O)[C@@H](NC(=O)[C@@H](NC(=O)c1cnccn1)C(C)(C)C)C(C)(C)C)C(=O)C(=O)NC1CC1 (some centres not stated) | 123
CCC[C@H](NC(=O)[C@@H]1C2CCCC2CN1C(=O)[C@@H](NC(=O)[C@@H](NC(=O)c1cnccn1)[C@@H](C)OC)C(C)(C)C)C(=O)C(=O)NC1CC1 (some centres not stated) | 146

1: CCCC(NC(=O)[C@@H]1C2CCCC2CN1C(=O)[C@@H](NC(=O)[C@@H](NC(=O)c1cnccn1)C1CCCCC1)C(C)(C)C)C(=O)C(=O)N[C@H](C)CC (some centres not stated)
2: CCC[C@H](NC(=O)[C@@H]1C2CCCC2CN1C(=O)[C@@H](NC(=O)[C@@H](NC(=O)c1cnccn1)[C@@H](C)CC)C(C)(C)C)C(=O)C(=O)NC1CC1 (some centres not stated)
3: CCCC(NC(=O)[C@@H]1C2CCCC2CN1C(=O)[C@@H](NC(=O)[C@@H](NC(=O)c1cnccn1)C1CCCCC1)C(C)(C)C)C(=O)C(=O)N[C@H](C)c1ccccc1 (some centres not stated)
Query block: List these items ordered by selectivity ratio, big to small. Give the labels in the order requested.
Result block: 1, 3, 2
(1: 107, 3: 51, 2: 15)
